tested on: JAK1-dependent STAT6 phosphorylation downstream of IL-13 stimulation in BEAS-2B human bronchial epithelial cells; test: JAK1 pathway assay in BEAS-2B cells (IL-13-pSTAT6, MSD); assay type: cell-based; conditions: read-out: IL13-pSTAT6 EC50 (uM)_BEAS-2B
log10(EC50) for assorted compounds
Remember, log10 of EC50, in µM.

Solved cases below.
Which value of log10(EC50) has been reported for O=C(O)CN(CCn1cc(NC(=O)c2cnn3cccnc23)c(-c2cc(Cl)ccc2OC(F)F)n1)Cc1cccnc1 in the records?
0.58

Which value of log10(EC50) has been reported for O=C(Nc1cn(CC(=O)N2CCC(OCC(=O)N3CCOCC3)CC2)nc1-c1cc(Cl)ccc1OC(F)F)c1cnn2cccnc12 in the records?
-1.52

Which value of log10(EC50) has been reported for CC(C#N)CN(C)C1CCN(C(=O)Cn2cc(NC(=O)c3cnn4cccnc34)c(-c3cc(Cl)ccc3OC(F)F)n2)CC1 (stereo not drawn) in the records?
-1.68

Which value of log10(EC50) has been reported for CC1(C(=O)OCCN2CCOCC2)CCN(C(=O)Cn2cc(NC(=O)c3cnn4cccnc34)c(-c3cc(Cl)ccc3OC(F)F)n2)CC1 in the records?
-2.03

Continuing:
Which value of log10(EC50) has been reported for CN(C1CCN(C(=O)Cn2cc(NC(=O)c3cnn4cccnc34)c(-c3cc(Cl)ccc3OC(F)F)n2)CC1)[C@@H]1CCOC1 in the records?
-1.49

Which value of log10(EC50) has been reported for O=C(Nc1cn(CC(=O)N2CCCCC2)nc1-c1cc(Cl)ccc1OC(F)F)c1cnn2cccnc12 in the records?
-1.63

Which value of log10(EC50) has been reported for N#CCCCN1CCN(C(=O)Cn2cc(NC(=O)c3cnn4cccnc34)c(-c3cc(Cl)ccc3OC(F)F)n2)CC1 in the records?
-1.93

Which value of log10(EC50) has been reported for CN1CC2CN(C(=O)Cn3cc(NC(=O)c4c(N)nn5cccnc45)c(-c4cc(Cl)ccc4OC(F)F)n3)CC2C1 (stereo not drawn) in the records?
-0.26

Which value of log10(EC50) has been reported for NC1CCC(=CCn2cc(NC(=O)c3cnn4cccnc34)c(-c3cc(Cl)ccc3OC(F)F)n2)CC1 (stereo not drawn) in the records?
-1.21

====

target: isolated recombinant JAK1 kinase domain (Homo sapiens (Human)); experiment: JAK1 enzyme assay (Caliper LabChip, peptide phosphorylation); format: biochemical; conditions: isolated recombinant JAK1 kinase domain, 25 μM ATP
Sequence (P23458 875-1153): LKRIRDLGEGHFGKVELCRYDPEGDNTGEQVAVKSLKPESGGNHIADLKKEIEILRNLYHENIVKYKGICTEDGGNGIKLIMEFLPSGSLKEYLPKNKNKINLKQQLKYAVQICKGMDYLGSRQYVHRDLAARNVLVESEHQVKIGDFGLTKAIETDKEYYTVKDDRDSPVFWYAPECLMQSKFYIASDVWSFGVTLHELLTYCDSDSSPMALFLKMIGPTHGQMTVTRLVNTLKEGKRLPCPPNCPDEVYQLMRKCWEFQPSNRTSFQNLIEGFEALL
Ki for assorted compounds

Which value of Ki has been reported for CN(CCOc1ccc(Cl)cc1)C1CCN(C(=O)Cn2cc(NC(=O)c3cnn4cccnc34)c(-c3cc(Cl)ccc3OC(F)F)n2)CC1 [Example 107] in the records?
0.97 nM

Which value of Ki has been reported for O=C(Nc1cn(C2CCN(CCCC(=O)N3CCOCC3)CC2)nc1-c1cc(Cl)ccc1OC(F)F)c1cnn2cccnc12 [Example 169] in the records?
1.16 nM

With those in mind, consider the next compound.
Which value of Ki has been reported for CN(CCc1ccc(C(F)(F)F)cc1)C1CCN(C(=O)Cn2cc(NC(=O)c3cnn4cccnc34)c(-c3cc(Cl)ccc3OC(F)F)n2)CC1 [Example 97] in the records?
1.16 nM

====

Ki for assorted compounds
biological target: isolated recombinant JAK2 kinase domain (Homo sapiens (Human), UniProt O60674); experiment: JAK2 enzyme assay (Caliper LabChip, peptide phosphorylation); conditions: 25 μM ATP
Sequence (O60674 849-1124): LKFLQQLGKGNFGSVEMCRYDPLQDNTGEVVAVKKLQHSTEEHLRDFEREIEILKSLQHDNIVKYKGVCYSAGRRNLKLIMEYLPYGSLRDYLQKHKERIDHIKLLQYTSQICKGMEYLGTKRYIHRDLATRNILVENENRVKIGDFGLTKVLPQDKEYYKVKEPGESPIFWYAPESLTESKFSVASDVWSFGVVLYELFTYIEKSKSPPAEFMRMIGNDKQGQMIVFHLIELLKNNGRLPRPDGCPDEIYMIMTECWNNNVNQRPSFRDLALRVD
State the answer as a number, implicitly in nM.

Please provide the recorded Ki for O=C(Nc1cn(CC(=O)N2C[C@H]3CN(CCCN4CCOCC4)C[C@H]3C2)nc1-c1cc(Cl)ccc1OC(F)F)c1cnn2cccnc12 , tested on isolated recombinant JAK2 kinase domain (Homo sapiens (Human), UniProt O60674).
0.71

Please provide the recorded Ki for O=C(Nc1cn(CC(=O)N2C[C@H]3CN(CCCN4C(=O)Cc5ccccc54)C[C@H]3C2)nc1-c1cc(Cl)ccc1OC(F)F)c1cnn2cccnc12 , tested on isolated recombinant JAK2 kinase domain (Homo sapiens (Human), UniProt O60674).
0.67

Please provide the recorded Ki for O=C(Nc1cn(CC(=O)N2CCN(C3CCOC3)CC2)nc1-c1cc(Cl)ccc1OC(F)F)c1cnn2cccnc12 (centres unmarked) , tested on isolated recombinant JAK2 kinase domain (Homo sapiens (Human), UniProt O60674).
0.88

Continuing:
Please provide the recorded Ki for C[C@@H]1COCCN1C1CCN(C(=O)Cn2cc(NC(=O)c3cnn4cccnc34)c(-c3cc(Cl)ccc3OC(F)F)n2)CC1 , tested on isolated recombinant JAK2 kinase domain (Homo sapiens (Human), UniProt O60674).
1.1

Please provide the recorded Ki for O=C(Nc1cn(C/C=C/CN2CCOCC2)nc1-c1cc(Cl)ccc1OC(F)F)c1cnn2cccnc12 , tested on isolated recombinant JAK2 kinase domain (Homo sapiens (Human), UniProt O60674).
0.61

Origin of values: patent US9346815B2
